Hello, the source for this data is patent US20170355757A1, in case you need it.

Target: African green monkey C5 (African green monkey)
Assay: cell-based or functional assay
One threshold, 70%, splits the recorded AGM AP % Max Inhibition, hemolysis assay, 5% serum values: lower ones are Yes, equal or higher ones are No.

[
  {
    "binder": "H4H12161P (antibody, human IgG4, V domains shown, H4H: human IgG4 Fc with S108P hinge mutation) VH: EVQLVESGGDLVQPGGSLRLSCAASGFTFSDHYMDWVRQAPGKGLDWIGRIRNKANAYNTEYAASVRGRFTISRDDSQNLLYLQMNSLKTDDTAVYYCVRVWNYAYFAMDVWGQGTTVTVSS VL: DIQMTQSPSSLSASVGDRVTITCRSSQNIGIFLNWYQQKPGEAPNLLISAASSLHSGVPSRFSGSGSGTDFTLTIGSLQPEDFATYYCQQTYNTIFTFGPGTKVDIK",
    "category": "Yes"
  },
  {
    "binder": "H4H12169P (antibody, human IgG4, V domains shown, H4H: human IgG4 Fc with S108P hinge mutation) VH: EVQLVESGGGLAQPGGSLRLSCAASGFTFRSYAMSWVRQAPGKGPEWVSGIGGNGVTTYYADSVKGRFTISRDNSKNTLFLQMNSLRAEDTAVYYCVQGGLGGYFTGYWGQGTLVTVSS VL: DIQMTQSPSSLSASVGDRVTITCRASQSISTYLNWYQQNPGKAPKLLIFDASSLQSGVPSRFSGSGSGTDFTLTIRGLQPEDFATYYCQQSYSAPLTFGGGTKVEIK",
    "category": "Yes"
  },
  {
    "binder": "H4H12164P (antibody, human IgG4, V domains shown, H4H: human IgG4 Fc with S108P hinge mutation) VH: EVQLVESGGGLVRSGGSLRLSCAASGFTFNRYAMTWVRQAPGKGLEWVSAISGSGSSTYYTDSVKGRFTISRDNSKNSVDLQMHSLRVEDTAIYYCARGTTVTTGYGMDVWGQGTTVTVSS VL: DIQMTQSPSSLSASVGDRVTFTCQASQDITNSLNWYQQKPGRAPKLLIYDASYLKAGVPSRFSGSGSGTDFTFTISSLQPEDIATYYCQQYDDLPYTFGQGTKLEIK",
    "category": "Yes"
  },
  {
    "binder": "H4H12168P (antibody, human IgG4, V domains shown, H4H: human IgG4 Fc with S108P hinge mutation) VH: QVQLVESGGGVVQPGGSLRLSCAASGFTFGGHAMHWVRQAPGKGLEWLAVISSDGSNKQYADSVKGRFTISRDNPKNTLYLQMNSLRVGDTAIYYCAKEVAPRYYYYGLDVWGQGTTVTVSS VL: DIQMTQSPSSLSASVGDRVTITCRASQDISNFLAWYQQKPGKVPKLLIYTASTLQSGVPSRFSGSGSGTDFTLTVSSLQPEDVATYYCQKYAGALTFGPGTKVDIK",
    "category": "No"
  },
  {
    "binder": "H4H12170P (antibody, human IgG4, V domains shown, H4H: human IgG4 Fc with S108P hinge mutation) VH: QVQLVESGGGVVQPGRSLRLSCAASGFTFSGYGMHWVRQAPGKGLEWVALIWLDGSNDYYADSVKGRFTISRDNSKNTLYLQMNRLRAEDTAVYYCARDGPVAAIPDYWGQGTLVTVSS VL: DIQMTQSPSTLSASVGDRVTITCRASQSISRWLAWYQLKPGKAPKLLIYKASSLESGVPSRFSGSGSGTDFTLTISSLQPDDFATYYCQQYNTYSYTFGQGTKLEIK",
    "category": "No"
  },
  {
    "binder": "H4H12163P (antibody, human IgG4, V domains shown, H4H: human IgG4 Fc with S108P hinge mutation) VH: EVQLVESGGDLVQPGGSLRLSCAASGFTFSSYAMNWVRQGPGKGLEWVSAISGRGDSTYYADSVKGRLTISRDNSKNTLYLQMNSLRAEDTAVYYCVKEGEQLVYWYFDLWGRGTLVTVSS VL: DIQMTQSPSSLSASVGDRVTITCRASQTISNFLHWYQQKPGKAPKLLIYAASSLQSGVPSRFSGSGSGTDFTLTISSLQPEDFSTYFCQQSYTTPLTFGGGTKVEIK",
    "category": "Yes"
  },
  {
    "binder": "H4H11686N (antibody, human IgG4, V domains shown, tested with H4H prefix (human IgG4 Fc with S108P hinge mutation); also called H2M11686N) VH: QVQLVESGGGLVKPGGSLRLSCAASGFTFSDYYMSWIRQAPGKGLEWVSYISSSGNTIKYADSMKGRFTISRDNAKKSLFVEMNSLRAEDTAVYYCARYKSSSDYFDHWGQGTLVTVSS VL: EIVLTQSPATLSLSPGERATLSCRASQSVRSYLAWYQQKPGQAPRLLIYDASNRATAIPARFSGSGSGTDFTLTISSLEPEDLAVYYCQQSGNWPLTFGGGTKVEIK",
    "category": "Yes"
  }
]
